# ASSAY TARGET: human IL-17A/F heterodimer (human, UniProt Q16552 24-155; Q96PD4 31-163)
# PROTOCOL: cell-based or functional assay
QUANTITY NAME: IC50, NIH/3T3/KZ170 NF-kB luciferase reporter (nM)
A number alone suffices; assume nM.

Examples from the recorded data:
339-125 (antibody, human IgG1, V domains shown) VH: QVQLVQSGAEVKKPGASVKVSCKASGYTFNEYTMHWVKQSHGQRLEWMGGINPNSGGVSYNQNFKGKATLTVDTSASTAYMELSSLRSEDTAVYYCARGGDGYYTNYFDIDYWGQGTTVTVSS VL: DIQMTQSPSSLSASVGDRVTITCSASSSVNYMHWYQQKPGKVPKLLIYDTSKLASGVPSRFSGSGSGTDFTLTISSLQPEDVATYYCQQWNSHPLTFGQGTKLEIK: 0.81
339-105 (antibody, human IgG1, V domains shown) VH: QVQLVQSGAEVKKPGASVKVSCKASGYTFTEYTMHWVRQAPGQRLEWMGGINPNSGGVSYNQNFKGRVTITRDTSSSTAYMELSSLRSEDTAVFYCARGGDGYYTNYFDIDYWGQGTTVTVSS VL: DIQMTQSPSSLSASVGDRVTITCSASSSVNYMHWYQQKPGKVPKLLIYDTSKLASGVPSRFSGSGSGTDFTLTISSLQPEDVATYYCQQWNSHPLTFGQGTKLEIK: 23
humanized anti-human IL-17A/F antibody 339-134 mAb IgG1.1 (antibody, V domains shown, IgG1.1/kappa; also called MVC978/MVC717; humanized parent) VH: QVQLVQSGAEVKKPGASVKVSCKASGYTFNEYTMHWVKQAPGQRLEWMGGINPNSGGVSYNQNFKGKATLTVDTSASTAYMELSSLRSEDTAVYYCARGGDGYYTNYFDIDYWGQGTTVTVSS VL: DIQMTQSPSSLSASVGDRVTITCSASSSVNYMHWYQQKPGKVPKLLIYDTSKLASGVPSRFSGSGSGTDFTLTISSLQPEDVATYYCQQWNSHPLTFGQGTKLEIKR: 0.26
339-37 (antibody, human IgG1, V domains shown) VH: QVQLVQSGAEVKKPGASVKVSCKASGYTFTEYTMHWVRQAPGQRLEWMGGINPNSGGVSYNQNFKGRVTITRDTSSSTAYMELSSLRSEDTAVFYCARGGDGYYTNYFDIDYWGQGTTVTVSS VL: EIVLTQSPDFQSVTPKEKVTITCSASSSVNYMHWYQQKPDQSPKLLIKDTSKLASGVPSRFSGSGSGTDFTLTINSLEAEDAATYYCQQWNSHPLTFGQGTKLEIK: 20

Kindly review the next binder as well.
For this binder ( 339-104 (antibody, human IgG1, V domains shown) VH: QVQLVQSGAEVKKPGASVKVSCKASGYTFNEYTMHWVKQSHGQRLEWMGGINPNSGGVSYNQNFKGKATLTVDTSSSTAYMELSSLRSEDTAVFYCARGGDGYYTNYFDIDYWGQGTTVTVSS VL: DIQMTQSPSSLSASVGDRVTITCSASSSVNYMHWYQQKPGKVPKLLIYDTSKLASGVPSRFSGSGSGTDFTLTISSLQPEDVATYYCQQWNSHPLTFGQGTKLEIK ), measured IC50, NIH/3T3/KZ170 NF-kB luciferase reporter is 0.83
